Protocol Summary: qHTS of pediatric cancer cell lines to identify multiple opportunities for drug repurposing: Primary screen for SK-N-SH cells (AID 1347098); note: nearly all actives have a fitted effect of over 65% in size
Applied Conditions: SK-N-SH viability, CellTiter-Glo luminescence, 48 h; series mostly up to 57 µM
Inconclusive results are not listed. Activity calls are given as the source filed them. Calls come from the whole dose curve; as a rule, active = well fitted cell-killing curve with a large enough effect; inconclusive = small, poorly fitted or top-dose-only effect; inactive = no such curve, though single readings can be large or run the other way.
Labels: active, inactive

compound=O=C(CCc1ccc(O)cc1)c1c(O)cc(O)cc1O discrete_label=inactive
compound=O=C(O)c1cn(-c2ccc(F)cc2)c2cc(N3CCNCC3)c(F)cc2c1=O discrete_label=inactive
compound="Clc1ccc(C(Cn2ccnc2)OCc2ccc(Sc3ccccc3)cc2)c(Cl)c1 (centres undefined)" discrete_label=inactive
compound="Cc1ncc([N+](=O)[O-])n1CC(C)O (centres undefined)" discrete_label=inactive
compound="CCOC(=O)C(C)Oc1cccc2c(=O)n(CC(=O)Nc3ccc4c(c3)OCCO4)ccc12 (centres undefined)" discrete_label=inactive
compound=O=c1c(O)c(-c2ccc(O)cc2O)oc2cc(O)cc(O)c12 discrete_label=inactive
compound="Cc1nccn1CC1CCc2c(c3ccccc3n2C)C1=O (centres undefined)" discrete_label=inactive
compound="O=C(NC(Cc1cc(=O)[nH]c2ccccc12)C(=O)O)c1ccc(Cl)cc1 (centres undefined)" discrete_label=inactive
compound=CCCOc1ccc2nc(NC(=O)OC)[nH]c2c1 discrete_label=inactive
compound="Nc1cccc2c1CN(C1CCC(=O)NC1=O)C2=O (centres undefined)" discrete_label=inactive
compound=NNc1nncc2ccccc12 discrete_label=inactive
compound=Cc1cc(C2CCCCC2)n(O)c(=O)c1 discrete_label=active
compound=CC(C)[C@H](N)C(=O)OCCOCn1cnc2c(=O)[nH]c(N)nc21 discrete_label=inactive
compound=Cc1cc(=O)oc2cc(O)ccc12 discrete_label=inactive
compound=NS(=O)(=O)c1cc(C(=O)O)c(NCc2ccco2)cc1Cl discrete_label=inactive
compound=CN(C)[C@@H](CCOc1cccc2ccccc12)c1ccccc1 discrete_label=inactive
compound=c1cnc2cc3c(cc2n1)C1CNCC3C1 discrete_label=inactive
compound=Clc1ccc2c(N3CCN(CCCN4CCN(c5ccnc6cc(Cl)ccc56)CC4)CC3)ccnc2c1 discrete_label=inactive
compound=CC1(C)NC(=O)N(c2ccc([N+](=O)[O-])c(C(F)(F)F)c2)C1=O discrete_label=inactive
compound=c1ccc2[nH]c(-c3cscn3)nc2c1 discrete_label=inactive
compound="Cc1c(OCC(F)(F)F)ccnc1CS(=O)c1nc2ccccc2[nH]1 (centres undefined)" discrete_label=inactive
compound="C[Se]CCC(N)C(=O)O (centres undefined)" discrete_label=inactive
compound="CCC1=C(C)CN(C(=O)NCCc2ccc(S(=O)(=O)NC(=O)NC3CCC(C)CC3)cc2)C1=O (centres undefined)" discrete_label=inactive
compound=Cc1cccc(-c2[nH]ncc2-c2ccc3ncccc3n2)n1 discrete_label=inactive
